# maps each entry to its Kd
molecular target: LAG3-Fc (rmLAG3-Fc) (mouse, UniProt Q61790 24-442); test: filter binding; 2 mM Ca2+; Filter binding: 20 mM HEPES pH 7.4, 150 mM NaCl, 2 mM CaCl2, 37 C, 30 min; SPR: PBS, 0.005% Tween 20, pH 7.4, temperature not stated; details: protein: recombinant; tags: human IgG2-Fc fusion; chain copies: 2; label: 32P (alpha-ATP)
Sequence (Q61790 24-442): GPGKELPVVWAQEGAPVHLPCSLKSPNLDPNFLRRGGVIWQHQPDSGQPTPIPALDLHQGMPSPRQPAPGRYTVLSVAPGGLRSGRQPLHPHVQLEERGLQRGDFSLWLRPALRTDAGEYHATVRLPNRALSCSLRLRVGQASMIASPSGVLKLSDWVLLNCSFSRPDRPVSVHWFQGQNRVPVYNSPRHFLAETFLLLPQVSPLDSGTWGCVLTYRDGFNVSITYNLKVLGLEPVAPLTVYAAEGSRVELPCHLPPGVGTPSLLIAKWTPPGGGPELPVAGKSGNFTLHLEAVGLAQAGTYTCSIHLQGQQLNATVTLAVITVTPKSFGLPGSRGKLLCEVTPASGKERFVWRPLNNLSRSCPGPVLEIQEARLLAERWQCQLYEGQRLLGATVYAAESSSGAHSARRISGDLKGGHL
Numbers only here, please. The scale is µM.

Entry LAG3 Apt4 (structured_RNA, 2'-F-U, 2'-F-C) RNA: GGGAGAGAGAUAUAAGGGACCGAAUCUGGUUAAUCUGCCUCACGUUAGGCCCAUUACCAAAUUCUCUCCC has what Kd?
0.1

Entry LAG3 Apt1 (structured_RNA, 2'-F-U, 2'-F-C) RNA: GGGAGAGAGAUAUAAGGGCCUCCUGAUACCCGCUGCUAUCUGGACCGAUCCCAUUACCAAAUUCUCUCCC has what Kd?
0.02

Entry LAG3 Apt5 (structured_RNA, 2'-F-U, 2'-F-C) RNA: GGGAGAGAGAUAUAAGGGUCUUGCCCAUCGACAAUAGAGCCCAGUCGCUGCCCAUUACCAAAUUCUCUCC has what Kd?
0.2

Entry LAG3 Apt2 (structured_RNA, 2'-F-U, 2'-F-C) RNA: GGGAGAGAGAUAUAAGGGUCUUGCCUGAUGGAGUUGGAGAGGACCAUCACCCAUUACCAAAUUCUCUCCC has what Kd?
0.05

All figures here come from paper PMC5608357.
